# target under test: [Pyruvate dehydrogenase (acetyl-transferring)] kinase isozyme 1, mitochondrial (Homo sapiens, UniProt Q15118)
result type: IC50 (nM)
Number in nM, nothing else.

Could you share which IC50 value was measured for "O=C(Cc1ccccc1)Nc1ccc(N(Cc2ccccc2)C(=O)c2ccc(O)cc2O)cc1" ? 1000

Could you share which IC50 value was measured for "CN(Cc1cccc2ncccc12)C(=O)c1ccc(N(Cc2ccsc2)C(=O)c2ccc(O)cc2O)cc1" ? 100

Could you share which IC50 value was measured for "Cc1cc2ccccc2nc1-c1ccc(N(Cc2ccc(F)cc2)C(=O)c2ccc(O)cc2O)cc1" ? 100

Could you share which IC50 value was measured for "Cc1ncc(C)c(-c2ccc(N(Cc3ccsc3)C(=O)c3ccc(O)cc3O)cc2)n1" ? 10

Could you share which IC50 value was measured for "Cc1cc2ccccc2nc1-c1ccc(N(Cc2ccc(Cl)cc2)C(=O)c2ccc(O)cc2O)cc1" ? 1000

Could you share which IC50 value was measured for "CNC(=O)c1ccc(N(Cc2ccccc2)C(=O)c2ccc(O)cc2O)cc1" ? 1000

Could you share which IC50 value was measured for "O=C(Nc1ccc(N(Cc2ccccc2)C(=O)c2ccc(O)cc2O)cc1)c1cc2ccccc2[nH]1" ? 10000

Could you share which IC50 value was measured for "Cc1cc(S(=O)(=O)N2CC(F)(F)C2)cnc1-c1ccc(N(Cc2ccccc2)C(=O)c2ccc(O)cc2O)cc1" ? 100

Could you share which IC50 value was measured for "O=C(Nc1ccc(N(Cc2ccccc2)C(=O)c2ccc(O)cc2O)cc1)c1cc2ccccc2s1" ? 10000

* * *

# target under test: [Pyruvate dehydrogenase (acetyl-transferring)] kinase isozyme 1, mitochondrial (Homo sapiens)
result type: pIC50
Scale: pIC50 equals -log10([C]), with [C] in mol/L.

Example results:
{"mol smiles": "O=C(c1ccc(O)cc1O)N(Cc1ccccc1)c1ccc(-c2nc(Cl)nc3c2COCC3)cc1", "result type": "pIC50", "numeric readout": 6.00}
{"mol smiles": "O=C(c1ccc(O)cc1O)N(Cc1ccsc1)c1ccc(-c2ccncc2C(F)(F)F)cc1", "result type": "pIC50", "numeric readout": 6.00}
{"mol smiles": "O=C(c1ccc(O)cc1O)N(Cc1ccccc1)c1ccc(-c2nncc3ccccc23)cc1", "result type": "pIC50", "numeric readout": 6.00}
{"mol smiles": "COC(=O)c1nc(-c2ccc(N(Cc3ccsc3)C(=O)c3ccc(O)cc3O)cc2)c2ccccc2n1", "result type": "pIC50", "numeric readout": 7.00}
{"mol smiles": "Cc1cc(Cl)nnc1-c1ccc(N(Cc2cccnc2)C(=O)c2ccc(O)cc2O)cc1", "result type": "pIC50", "numeric readout": 8.00}

Could you share which pIC50 value was measured for "CN(C)C(=O)c1ccc(N(Cc2nc3ccccc3[nH]2)C(=O)c2cc(Cl)c(O)cc2O)cc1" ? 6.00

Could you share which pIC50 value was measured for "CN(Cc1ccnc2ccccc12)C(=O)c1ccc(N(Cc2ccsc2)C(=O)c2ccc(O)cc2O)cc1" ? 7.00

Could you share which pIC50 value was measured for "O=C(c1ccc(O)cc1O)N(Cc1ccsc1)c1ccc(-c2ncnc3cccc(F)c23)cc1" ? 7.00

Could you share which pIC50 value was measured for "Cc1ncc(C)c(-c2ccc(N(Cc3ccccc3)C(=O)c3cc(Cl)c(O)cc3O)cc2)n1" ? 7.00

* * *

# target under test: [Pyruvate dehydrogenase (acetyl-transferring)] kinase isozyme 1, mitochondrial (Homo sapiens)
result type: IC50 (µM)
Number in µM, nothing else.

Example results:
{"mol smiles": "CN(Cc1ccc2ncccc2c1)C(=O)c1ccc(N(Cc2cccnc2)C(=O)c2ccc(O)cc2O)cc1", "IC50, µM": 0.1}
{"mol smiles": "Cc1ccc(CN(C(=O)c2cc(Cl)c(O)cc2O)c2ccc(C(=O)N(C)C)cc2)cc1", "IC50, µM": 0.1}
{"mol smiles": "Cc1ccnnc1-c1ccc(N(Cc2ccccc2)C(=O)c2ccc(O)cc2O)cc1", "IC50, µM": 0.1}
{"mol smiles": "O=C(c1ccc(O)cc1O)N(Cc1ccccc1)c1ccc(-c2nc3ccccc3cc2CO)cc1", "IC50, µM": 10}
{"mol smiles": "CC(=O)NCCNS(=O)(=O)c1cnc(-c2ccc(N(Cc3cccnc3)C(=O)c3ccc(O)cc3O)cc2)c(C)c1", "IC50, µM": 0.01}
{"mol smiles": "CN(Cc1cccs1)C(=O)c1ccc(N(Cc2cccnc2)C(=O)c2ccc(O)cc2O)cc1", "IC50, µM": 0.1}
{"mol smiles": "COc1ccc(CN(C)C(=O)c2ccc(N(Cc3ccsc3)C(=O)c3ccc(O)cc3O)cc2)cc1", "IC50, µM": 0.1}
{"mol smiles": "O=C(c1ccc(O)cc1O)N(Cc1ccccc1)c1ccc(-c2ncccc2CO)cc1", "IC50, µM": 1}

Could you share which IC50 value was measured for "Cc1cc2ccc(F)cc2nc1-c1ccc(N(Cc2ccsc2)C(=O)c2ccc(O)cc2O)cc1" ? 0.1

Could you share which IC50 value was measured for "CN(Cc1ccc2ccccc2n1)C(=O)c1ccc(N(Cc2cccnc2)C(=O)c2ccc(O)cc2O)cc1" ? 0.1

Could you share which IC50 value was measured for "C[C@@H](c1ccccc1)N(C(=O)c1cc(Cl)c(O)cc1O)c1ccc(C(=O)N(C)C)cc1" ? 1

Could you share which IC50 value was measured for "O=C(c1ccc(O)cc1O)N(Cc1ccsc1)c1ccc(-c2nc(C(F)(F)F)nc3ccccc23)cc1" ? 0.1

Could you share which IC50 value was measured for "O=C(c1ccc(O)cc1O)N(Cc1cccnc1)c1ccc(-c2nc3ccccc3o2)cc1" ? 1

* * *

Overview of recorded IC50 for various compounds
# target under test: [Pyruvate dehydrogenase (acetyl-transferring)] kinase isozyme 1, mitochondrial (Homo sapiens)
# experiment summary: Binding affinity to pyruvate dehydrogenase kinase 1 (unknown origin) incubated for 90 mins by VER-00160364 probe based fluorescence polarization assay
Number in nM, nothing else.

{"mol smiles": "O=C(c1ccc(O)cc1O)N(Cc1cccnc1)c1ccc(-c2ccc(-n3ccnc3)nn2)cc1", "result type": "IC50", "units text": "nM", "numeric readout": 1000}
{"mol smiles": "O=C(c1ccc(N(Cc2ccccc2)C(=O)c2ccc(O)cc2O)cc1)N1CCC(O)CC1", "result type": "IC50", "units text": "nM", "numeric readout": 100}
{"mol smiles": "COc1cc(-c2ccc(N(Cc3cccnc3)C(=O)c3ccc(O)cc3O)cc2)ncn1", "result type": "IC50", "units text": "nM", "numeric readout": 1000}
{"mol smiles": "Cc1nc(-c2ccc(N(Cc3ccccc3)C(=O)c3ccc(O)cc3O)cc2)c2ccccc2n1", "result type": "IC50", "units text": "nM", "numeric readout": 1000}
{"mol smiles": "CN(C)C(=O)c1ccc(N(CC2CCCC2)C(=O)c2cc(Cl)c(O)cc2O)cc1", "result type": "IC50", "units text": "nM", "numeric readout": 100}
{"mol smiles": "O=C(c1ccc(O)cc1O)N(Cc1ccsc1)c1ccc(-c2ncnc3ccc(Cl)cc23)cc1", "result type": "IC50", "units text": "nM", "numeric readout": 1000}
{"mol smiles": "CN(C)C(=O)c1ccc(N(Cc2csc3ccc(Cl)cc23)C(=O)c2cc(Cl)c(O)cc2O)cc1", "result type": "IC50", "units text": "nM", "numeric readout": 1000}
{"mol smiles": "O=C(c1ccc(O)cc1O)N(Cc1ccsc1)c1ccc(-c2nc3ccccc3cc2CO)cc1", "result type": "IC50", "units text": "nM", "numeric readout": 100}

Next up:
Could you share which IC50 value was measured for "Cc1csc2ncnc(-c3ccc(N(Cc4cccnc4)C(=O)c4ccc(O)cc4O)cc3)c12" ? 100

* * *

# target under test: [Pyruvate dehydrogenase (acetyl-transferring)] kinase isozyme 1, mitochondrial (Homo sapiens)
result type: pIC50
Scale: pIC50 equals -log10([C]), with [C] in mol/L.

Example results:
{"mol smiles": "CCOc1ccc2nc(-c3ccc(N(Cc4cccnc4)C(=O)c4ccc(O)cc4O)cc3)c(C)cc2c1", "pIC50": 7.00}
{"mol smiles": "O=C(c1ccc(O)cc1O)N(Cc1ccccc1)c1ccc(-c2ncnc3ccsc23)cc1", "pIC50": 5.00}

Next up:
Could you share which pIC50 value was measured for "O=C(c1ccc(O)cc1O)N(Cc1ccccc1)c1ccc(-c2nc(Cl)nc3[nH]ccc23)cc1" ? 6.00

* * *

Overview of recorded IC50 for various compounds
# target under test: Pyruvate dehydrogenase kinase (Homo sapiens, UniProt Q15119+Q15120+Q16654+Q15118)
# experiment summary: Inhibition of pyruvate dehydrogenase kinase in human PC3 cells incubated for 90 mins by phospho(Ser293)E1alpha MSP ELISA method
# Type: cell-based
# test context: pc-3
Number in µM, nothing else.

Example results:
{"mol smiles": "CN(Cc1ccc2ccccc2c1)C(=O)c1ccc(N(Cc2cccnc2)C(=O)c2ccc(O)cc2O)cc1", "IC50, µM": 1}
{"mol smiles": "Cc1cc(C(=O)N(Cc2ccccc2)c2ccc(C(=O)N(C)Cc3ccc4nccnc4c3)cc2)c(O)cc1O", "IC50, µM": 1}
{"mol smiles": "Cc1cc(S(=O)(=O)N2CCOCC2)cnc1-c1ccc(N(Cc2ccsc2)C(=O)c2ccc(O)cc2O)cc1", "IC50, µM": 1}
{"mol smiles": "Cc1cc(S(=O)(=O)N2CC(F)(F)C2)cnc1-c1ccc(N(Cc2ccccc2)C(=O)c2ccc(O)cc2O)cc1", "IC50, µM": 10}
{"mol smiles": "Cc1cnc(Cl)nc1-c1ccc(N(Cc2ccc(CNC(=O)c3cccs3)cc2)C(=O)c2ccc(O)cc2O)cc1", "IC50, µM": 0.1}
{"mol smiles": "COC(=O)c1nc(-c2ccc(N(Cc3ccsc3)C(=O)c3ccc(O)cc3O)cc2)c2ccccc2n1", "IC50, µM": 1}
{"mol smiles": "Cc1cnc(Cl)nc1-c1ccc(N(Cc2cccc(CN(C)C)c2)C(=O)c2ccc(O)cc2O)cc1", "IC50, µM": 1}

Next up:
Could you share which IC50 value was measured for "Cc1cc(S(=O)(=O)NCc2cccs2)cnc1-c1ccc(N(Cc2cccnc2)C(=O)c2ccc(O)cc2O)cc1" ? 1
